The following sequences are listed with their measured pull-down binding Z-score values.
Tested on: TO-3-N3-2 (biotin conjugate)
Experiment Notes: pull-down binding Z-score (relative to library population); higher = stronger binding
Condition Context: RNA library: Library-2
Quantity: pull-down binding Z-score

Residue Codes: AGGUAGUGAUAUGUGCAUCUACU [hsa-mir-17]
Observed Result: 0.142
--
Residue Codes: UACUAAUAUGUUUACACCACUAAUUCAACCUAUUGGUGCUUUGGACAUAUCAGCAUCUAUAGUAGCUGGUGGUAUUGUAGCUAUCGUAGUA [SHAPE_invivo_SARS-CoV-2_Motif_188]
Observed Result: 0.253
--
Residue Codes: CUGUUUCUGGUGAAAUAUUCAAACAG [hsa-mir-4433a]
Observed Result: -0.178
--
Residue Codes: UGGGGUUGGGGUUGGGGUUGGGGUUGGGGUUGGGGU [G4_r(UGGGGU)6]
Observed Result: 8.72
--
Residue Codes: CUAACUGAGAAUAAAUAUUCUCAAUUAG
Observed Result: -0.937
--
Residue Codes: CAGAGUACUCAAUGGUCUUUG
Observed Result: -0.543
--
Residue Codes: UUGUCGUUAAAAAUAGCAA [hsa-mir-548n]
Observed Result: -0.149
--
Residue Codes: GUUUGUCUUAGUGGUUUAGAUUCUUUAGACACCUAUCCUUCUUUAGAAACUAUACAAAU
Observed Result: 0.0248
--
Residue Codes: UCCACUAGCAUCUUUAUUGGAGAUGUGCCACAGCACACAGAUUGGUGGAAUUAGGAUGGUAGACAUCCUUAGGCAGAACCCAACAGAAGAGCAAGCCGUGGA
Observed Result: -0.269
